Tested on: LXRb:RXRa (NR concentration 270 nM, RXRa partner concentration 90 nM)
Assay: PBM binding z-score (relative to random genomic background probes); higher = stronger binding; sequences stand for … in GC…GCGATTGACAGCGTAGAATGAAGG
ENDPOINT: PBM binding z-score

INSERT INTO assay_data (residue_string, target_of_assay, result) VALUES
  ('TCTTGTATATCAACAGGAGGTTAAGAAAGATCGA', 'LXRb:RXRa (NR concentration 270 nM, RXRa partner concentration 90 nM)', 1.16),
  ('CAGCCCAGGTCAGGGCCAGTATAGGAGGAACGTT', 'LXRb:RXRa (NR concentration 270 nM, RXRa partner concentration 90 nM)', 1.01),
  ('ATCTGTAGGTTAAGGGTCATTCAGGTTGGTTCGC', 'LXRb:RXRa (NR concentration 270 nM, RXRa partner concentration 90 nM)', 4.56),
  ('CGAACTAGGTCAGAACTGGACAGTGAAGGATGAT', 'LXRb:RXRa (NR concentration 270 nM, RXRa partner concentration 90 nM)', 0.262),
  ('AGAATGAGGTGACCAAAGATCAGGGAAACGCTTG', 'LXRb:RXRa (NR concentration 270 nM, RXRa partner concentration 90 nM)', 0.478),
  ('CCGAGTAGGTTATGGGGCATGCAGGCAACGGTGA', 'LXRb:RXRa (NR concentration 270 nM, RXRa partner concentration 90 nM)', 0.502);
